tested on: Beet Armyworm (Spodoptera exigua); assay: Bioassay on Beet Armyworm (BAW), 128-well diet tray assay; type: in vivo; conditions: 50 μg/cm^2 on artificial diet, second instar larvae, five to seven days, 25° C.

| COMPOUND | BAW % Control (or Mortality) rating |
| --- | --- |
| CN(NC(=O)c1ccc(/C(F)=C/C(c2cc(Cl)cc(Br)c2)C(F)(F)F)cc1C(F)(F)F)C(=O)NCC(F)(F)F (stereo not shown) | A (50-100) |
| C=Cc1c(Cl)cc(C(/C=C(\F)c2ccc(C(=O)NN(C)C(=O)NCC(F)(F)F)c(C(F)(F)F)c2)C(F)(F)F)cc1Cl (stereo not shown) | A (50-100) |
| O=C(NCC(F)(F)F)NNC(=O)c1ccc(/C(F)=C/C(c2cc(Cl)c(Cl)c(Cl)c2)C(F)(F)F)cc1C(F)(F)F (stereo not shown) | A (50-100) |
| Cc1cc(C(/C=C(\F)c2ccc(C(=O)NN(C)C(=O)NCC(F)(F)F)c(C(F)(F)F)c2)C(F)(F)F)cc(C)c1Cl (stereo not shown) | A (50-100) |
| CN(NC(=O)c1ccc(/C(F)=C/C(c2cc(Br)cc(Br)c2)C(F)(F)F)cc1C(F)(F)F)C(=O)NCC(F)(F)F (stereo not shown) | A (50-100) |
| CN(NC(=O)c1ccc(/C(F)=C/C(c2cc(Cl)c(Cl)c(Cl)c2)C(F)(F)F)cc1C(F)(F)F)S(=O)(=O)CCC(F)(F)F (stereo not shown) | A (50-100) |
| CN(NC(=O)CCC(F)(F)F)C(=O)c1ccc(/C(F)=C/C(c2cc(Cl)c(Cl)c(Cl)c2)C(F)(F)F)cc1C(F)(F)F (stereo not shown) | A (50-100) |
| CN(NC(=O)c1ccc(/C(F)=C/C(c2cc(Cl)cc(Cl)c2)C(F)(F)F)cc1C(F)(F)F)C(=O)NCC(F)(F)F (stereo not shown) | A (50-100) |
| CN(NC(=O)c1ccc(/C(F)=C/C(c2ccc(Cl)c(Br)c2)C(F)(F)F)cc1C(F)(F)F)C(=O)NCC(F)(F)F (stereo not shown) | A (50-100) |
| O=C(CCC(F)(F)F)NNC(=O)c1ccc(/C(F)=C/C(c2ccc(Cl)c(Cl)c2)C(F)(F)F)cc1C(F)(F)F (stereo not shown) | A (50-100) |
| O=C(CCC(F)(F)F)NNC(=O)c1ccc(/C(F)=C/C(c2cc(Cl)c(Br)c(Cl)c2)C(F)(F)F)cc1C(F)(F)F (stereo not shown) | A (50-100) |
| O=C(CCC(F)(F)F)NNC(=O)c1ccc(/C(F)=C/C(c2cc(Cl)c(F)c(Cl)c2)C(F)(F)F)cc1C(F)(F)F (stereo not shown) | A (50-100) |
| O=C(NNS(=O)(=O)CCC(F)(F)F)c1ccc(/C(F)=C/C(c2cc(Cl)c(Cl)c(Cl)c2)C(F)(F)F)cc1C(F)(F)F (stereo not shown) | A (50-100) |
| CC(C)(C)C(=O)NNC(=O)c1ccc(/C(F)=C/C(c2cc(Cl)c(Cl)c(Cl)c2)C(F)(F)F)cc1C(F)(F)F (stereo not shown) | A (50-100) |
| O=C(CCC(F)(F)F)NNC(=O)c1ccc(/C(F)=C/C(c2cc(Br)c(Cl)c(Br)c2)C(F)(F)F)cc1C(F)(F)F (stereo not shown) | A (50-100) |
| CN(NC(=O)c1ccc(/C(F)=C/C(c2cc(Cl)c(F)c(Cl)c2)C(F)(F)F)cc1C(F)(F)F)C(=O)NCC(F)(F)F (stereo not shown) | A (50-100) |
| CN(NC(=O)c1ccc(/C(F)=C/C(c2cc(Br)c(Cl)c(Br)c2)C(F)(F)F)cc1C(F)(F)F)C(=O)NCC(F)(F)F (stereo not shown) | A (50-100) |
| O=C(CCC(F)(F)F)NNC(=O)c1ccc(/C(F)=C/C(c2cc(Cl)c(Cl)c(Cl)c2)C(F)(F)F)cc1Cl (stereo not shown) | A (50-100) |
| CN(NC(=O)c1ccc(/C(F)=C/C(c2cc(Cl)c(Br)c(Cl)c2)C(F)(F)F)cc1C(F)(F)F)C(=O)NCC(F)(F)F (stereo not shown) | A (50-100) |
| CC(F)(F)C(/C=C(\F)c1ccc(C(=O)NNC(=O)NCC(F)(F)F)c(C(F)(F)F)c1)c1cc(Cl)c(Cl)c(Cl)c1 (stereo not shown) | A (50-100) |
| CN(NC(=O)c1ccc(/C(F)=C/C(c2cc(Cl)c(Cl)c(Cl)c2)C(F)(F)F)cc1C(F)(F)F)C(=O)CCC(F)(F)F (stereo not shown) | A (50-100) |
| O=C(NCC(F)(F)F)NNC(=O)c1ccc(/C(F)=C/C(c2cc(Cl)c(Cl)c(Cl)c2)C(F)(F)F)cc1Br (stereo not shown) | A (50-100) |
| CN(NC(=O)c1ccc(/C(F)=C/C(c2cc(Cl)c(Cl)c(Cl)c2)C(F)(F)F)cc1C(F)(F)F)C(=O)NCC(F)(F)F (stereo not shown) | A (50-100) |
| Cc1cc(C(/C=C(\F)c2ccc(C(=O)NN(C)C(=O)NCC(F)(F)F)c(C(F)(F)F)c2)C(F)(F)F)cc(Cl)c1Cl (stereo not shown) | A (50-100) |
| CN(NC(=O)c1ccc(/C(F)=C/C(c2cc(Cl)cc(C(F)(F)F)c2)C(F)(F)F)cc1C(F)(F)F)C(=O)NCC(F)(F)F (stereo not shown) | A (50-100) |
| O=C(CCC(F)(F)F)NNC(=O)c1ccc(/C(F)=C/C(c2cc(Cl)c(Cl)c(Cl)c2)C(F)(F)F)cc1I (stereo not shown) | A (50-100) |
| O=C(CCC(F)(F)F)NNC(=O)c1ccc(/C(F)=C/C(c2cc(Cl)c(Cl)c(Cl)c2)C(F)(F)F)cc1C(F)(F)F (stereo not shown) | A (50-100) |

###

System: Yellow Fever Mosquito (Aedes aegypti)
Format: in vivo
Details: 4000 ppm master plate solution diluted, about 1 day-old larvae, scored on mortality after 3 days
Protocol: Master plates containing 400 μg of a molecule dissolved in 100 μL of dimethyl sulfoxide (DMSO) (equivalent to a 4000 ppm solution) are used. A master plate of assembled molecules contains 15 μL per well. To this plate, 135 μL of a 90:10 water:acetone mixture is added to each well. […] The day before plates are to be treated, mosquito eggs are placed in Millipore water containing liver powder to begin hatching (4 g. into 400 mL). […] After 3 days, each well is observed and scored based on mortality. […]

| COMPOUND | YFM % Control (or Mortality) rating |
| --- | --- |
| O=C(CCC(F)(F)F)NNC(=O)c1ccc(/C(F)=C/C(c2cc(Cl)cc(Cl)c2)C(F)(F)F)cc1C(F)(F)F (stereo not shown) | A (80-100) |
| Cc1cc(C(/C=C(\F)c2ccc(C(=O)NN(C)C(=O)NCC(F)(F)F)c(C(F)(F)F)c2)C(F)(F)F)cc(C)c1Cl (stereo not shown) | A (80-100) |
| CN(NC(=O)c1ccc(/C(F)=C/C(c2cc(Cl)cc(Cl)c2)C(F)(F)F)cc1C(F)(F)F)C(=O)NCC(F)(F)F (stereo not shown) | A (80-100) |
| O=C(CCC(F)(F)F)NNC(=O)c1ccc(/C(F)=C/C(c2cc(Cl)c(Br)c(Cl)c2)C(F)(F)F)cc1C(F)(F)F (stereo not shown) | A (80-100) |
| CN(NC(=O)c1ccc(/C(F)=C/C(c2ccc(Cl)c(Br)c2)C(F)(F)F)cc1C(F)(F)F)C(=O)NCC(F)(F)F (stereo not shown) | A (80-100) |
| CN(NC(=O)c1ccc(/C(F)=C/C(c2cc(Cl)c(F)c(Cl)c2)C(F)(F)F)cc1C(F)(F)F)C(=O)NCC(F)(F)F (stereo not shown) | A (80-100) |
| O=C(CCC(F)(F)F)NNC(=O)c1ccc(/C(F)=C/C(c2cc(Cl)c(F)c(Cl)c2)C(F)(F)F)cc1C(F)(F)F (stereo not shown) | A (80-100) |

###

system: Yellow Fever Mosquito (Aedes aegypti); type: in vivo; conditions: 4000 ppm master plate solution diluted, about 1 day-old larvae, scored on mortality after 3 days
QUANTITY KIND: YFM % Control (or Mortality) rating

| MOLECULE | TARGET | QUANTITY KIND | RESULT VALUE |
| --- | --- | --- | --- |
| CN(NC(=O)c1ccc(/C(F)=C/C(c2cc(Br)cc(Br)c2)C(F)(F)F)cc1C(F)(F)F)C(=O)NCC(F)(F)F (stereo not shown) | Yellow Fever Mosquito (Aedes aegypti) | YFM % Control (or Mortality) rating | A (80-100) |
| O=C(CCC(F)(F)F)NNC(=O)c1ccc(/C(F)=C/C(c2cc(Br)c(Cl)c(Br)c2)C(F)(F)F)cc1C(F)(F)F (stereo not shown) | Yellow Fever Mosquito (Aedes aegypti) | YFM % Control (or Mortality) rating | A (80-100) |
| O=C(CCC(F)(F)F)NNC(=O)c1ccc(/C(F)=C/C(c2cc(Br)cc(Br)c2)C(F)(F)F)cc1C(F)(F)F (stereo not shown) | Yellow Fever Mosquito (Aedes aegypti) | YFM % Control (or Mortality) rating | A (80-100) |
